In this section, each of the molecules is paired with its reported TGI.
Test system: CCRF-CEM leukemia
Assay: NCI tumour cell line growth inhibition, 48 h

[
  {
    "Molecule": "NC(CO)C(=O)NCC(=O)O (configuration not stated)",
    "TGI": "> 100 µM"
  },
  {
    "Molecule": "Clc1cccc2c1OCC1C(c3ccccc3)=NN(c3ccccc3)C21 (configuration not stated)",
    "TGI": "> 100 µM"
  },
  {
    "Molecule": "O=c1[nH]c(=O)n2n1C1C=CC2CC1",
    "TGI": "> 100 µM"
  },
  {
    "Molecule": "CC#CCCCC1(C)CCCNC1=S (configuration not stated)",
    "TGI": "> 10 µM"
  },
  {
    "Molecule": "COCn1c(C)c(C)c2c(=O)oc(C)nc21",
    "TGI": "> 100 µM"
  },
  {
    "Molecule": "CC(=O)N(C(C)=O)n1nc2c(n1)C(=O)c1ccccc1C2=O",
    "TGI": "> 100 µM"
  }
]

TGI for `O=c1cc(O)c2c(O)cc(O)cc2o1` ?
> 100 µM

Repeat for the following molecule: `O=C(NC(=O)c1cc2cc(Br)cc(Br)c2oc1=O)Oc1ccccc1`
> 100 µM

Repeat for the following molecule: CC(=O)OC1[C@@H](OC(C)=O)CN(OCc2ccccc2)C[C@H]1OC(C)=O (some centres not stated)
> 100 µM

Repeat for the following molecule: `N=C(N)SCc1ccc([N+](=O)[O-])cc1[N+](=O)[O-]`
> 100 µM

Repeat for the following molecule: `COc1ccc(Oc2cc(NCCC(F)(F)F)c3ncc(-c4ccc(C(=O)NC5CC5)c(C)c4)n3n2)c(F)c1F`
> 100 µM

Repeat for the following molecule: `CSc1ccc2c(cc1=O)[C@@H](NC(=O)c1ccc([N+](=O)[O-])cc1)CCc1cc(O)c(O)c(O)c1-2`
> 100 µM

Repeat for the following molecule: CC(=O)OC1[C@H](n2ccnc2)C[C@H]2[C@@H]3CC=C4CC(N5CCCC5)CC[C@]4(C)[C@H]3CC[C@]12C (some centres not stated)
> 100 µM

Repeat for the following molecule: `Nc1nc(-c2cc(-c3cccc4ccccc34)nc(N)n2)cc(-c2cccc3ccccc23)n1`
> 100 µM

Repeat for the following molecule: `CCCCCCCCCCCCCCCCOc1ccc(/C=C/C2=[N+](CCCl)CCO2)cc1`
> 100 µM

Repeat for the following molecule: `O=[p+]1c2ccccc2[nH]c2ccccc21`
> 100 µM

Repeat for the following molecule: `Oc1ccccc1-c1nn2c(CCCCCCCCc3nnc4sc(-c5ccccc5O)nn34)nnc2s1`
39.3 µM

Repeat for the following molecule: `Cc1cnc(SCCN2CCN(C)CC2)nc1-c1cc2ccccc2s1`
14.2 µM
